B1: DCAF4 (parent)
chain: DSHILLCLMGLAETPGCATLLPAS

variants of: B1; assay: protein stability index of a GFP-peptide fusion (GPS, HEK-293T) (PSI 1-6); higher = more stable; details: c terminus: a fixed tail appended;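 note: lentivirally expressed fusions sorted by FACS into six bins by GFP to DsRed ratio, PSI derived from sequencing read proportions per bin multiplied by bin number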
Categories are defined by ranges of protein stability index, namely label 0 (below 2), label 1 (2 to below 3), label 2 (3 or more)

DSHILLCLMGPAETPGCATLLPAS [L11P]: label 1
DSHILLCLMALAETPGCATLLPAS [G10A]: label 0
DSHILLCWMGLAETPGCATLLPAS [L8W]: label 1
DSHILLCLMGLAETPGCATLLPIS [A23I]: label 2
DVHILLCLMGLAETPGCATLLPAS [S2V]: label 2
DSHILLCLMLLAETPGCATLLPAS [G10L]: label 1
DSHILDCLMGLAETPGCATLLPAS [L6D]: label 1
DSHINLCLMGLAETPGCATLLPAS [L5N]: label 0
DSHILLCLLGLAETPGCATLLPAS [M9L]: label 2
DSHILLCLMGLAETPGCAALLPAS [T19A]: label 1
DSHILLCLMGLAETPGHATLLPAS [C17H]: label 1
DSHILLCLMGLAETPGCATLSPAS [L21S]: label 0
DSHILLCLMGLAEMPGCATLLPAS [T14M]: label 1
DSHILLCLMGLAETPGCATLLPAI [S24I]: label 1
DSHILLCLMGLAETPGDATLLPAS [C17D]: label 0
DSHILLCLMGHAETPGCATLLPAS [L11H]: label 1
DSHILLCLMGLAETPGCATDLPAS [L20D]: label 1
DSHILLCLMGLAETGGCATLLPAS [P15G]: label 1
DSHILLCLMGLAETPGCATLLPCS [A23C]: label 0
